target: UniProt P11511; assay: Competitive inhibition of human aromatase extracted from placental microsomes by Dixon plot analysis in presence of [1beta-3H]AD; conditions: read-out: Ki
measured endpoint: pKi
Expect pKi as a plain number equal to -log10 of the molar concentration.

For orientation, consider the following solved cases.
[[record]]
smiles_notation = "CC1(C)C[C@@]2(C)C(=CC1=O)CC[C@@H]1[C@@H]2CC[C@]2(C)C(=O)CC[C@@H]12"
measured_endpoint = "pKi"
recorded_value = 8.06

[[record]]
smiles_notation = "C[C@]12C[C@@H](Br)C(=O)C=C1CC[C@@H]1[C@@H]2CC[C@]2(C)C(=O)CC[C@@H]12"
measured_endpoint = "pKi"
recorded_value = 7.35


Sample C=C1C[C@@]2(C)C(=CC1=O)CC[C@@H]1[C@@H]2CC[C@]2(C)C(=O)CC[C@@H]12 ; pKi observed: 7.17

###

Target: Aromatase (Homo sapiens)
Sequence (P11511 whole entry): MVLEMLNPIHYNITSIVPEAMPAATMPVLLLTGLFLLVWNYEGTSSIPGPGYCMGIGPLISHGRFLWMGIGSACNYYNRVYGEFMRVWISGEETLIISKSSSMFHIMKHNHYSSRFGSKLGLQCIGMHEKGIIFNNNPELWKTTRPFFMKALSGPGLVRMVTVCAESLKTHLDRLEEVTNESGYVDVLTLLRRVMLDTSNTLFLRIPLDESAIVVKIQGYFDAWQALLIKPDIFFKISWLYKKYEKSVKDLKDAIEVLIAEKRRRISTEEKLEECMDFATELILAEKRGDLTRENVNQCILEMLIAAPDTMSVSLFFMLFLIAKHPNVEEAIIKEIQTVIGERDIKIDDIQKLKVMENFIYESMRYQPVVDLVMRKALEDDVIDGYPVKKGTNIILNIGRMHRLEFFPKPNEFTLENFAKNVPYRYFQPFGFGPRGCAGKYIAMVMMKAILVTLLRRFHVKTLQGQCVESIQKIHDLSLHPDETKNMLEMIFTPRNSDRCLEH
Experiment: Competitive inhibition of human aromatase extracted from placental microsomes after 10 mins in presence of [1beta-3H]androstenedione
With a cut-off of 5 nM, any Ki strictly below it is called criterion met; any Ki meeting it or above is called criterion not met.

Worked cases, answers included:
[[record]]
smiles_notation = "C#CC[C@H]1C[C@@H]2[C@H](CC[C@]3(C)C(=O)CC[C@@H]23)[C@@]2(C)CCC(=O)C=C12"
class_assignment = "criterion not met"

[[record]]
smiles_notation = "C[C@@H]1C[C@@H]2[C@H](CC[C@]3(C)C(=O)CC[C@@H]23)[C@@]2(C)CCC(=O)C=C12"
class_assignment = "criterion met"

[[record]]
smiles_notation = "C#CC[C@@H]1C[C@@H]2[C@H](CC[C@]3(C)C(=O)CC[C@@H]23)[C@@]2(C)CCC(=O)C=C12"
class_assignment = "criterion not met"

[[record]]
smiles_notation = "CCCC[C@@H]1C[C@@H]2[C@H](CC[C@]3(C)C(=O)CC[C@@H]23)[C@@]2(C)CCC(=O)C=C12"
class_assignment = "criterion met"


Q) Strictly below 5 nM: is that where Ki of CC[C@@H]1C[C@@H]2[C@H](CC[C@]3(C)C(=O)CC[C@@H]23)[C@@]2(C)CCC(=O)C=C12 sits?
A) criterion met

###

Target: Aromatase (Homo sapiens, UniProt P11511)
Sequence (P11511 whole entry): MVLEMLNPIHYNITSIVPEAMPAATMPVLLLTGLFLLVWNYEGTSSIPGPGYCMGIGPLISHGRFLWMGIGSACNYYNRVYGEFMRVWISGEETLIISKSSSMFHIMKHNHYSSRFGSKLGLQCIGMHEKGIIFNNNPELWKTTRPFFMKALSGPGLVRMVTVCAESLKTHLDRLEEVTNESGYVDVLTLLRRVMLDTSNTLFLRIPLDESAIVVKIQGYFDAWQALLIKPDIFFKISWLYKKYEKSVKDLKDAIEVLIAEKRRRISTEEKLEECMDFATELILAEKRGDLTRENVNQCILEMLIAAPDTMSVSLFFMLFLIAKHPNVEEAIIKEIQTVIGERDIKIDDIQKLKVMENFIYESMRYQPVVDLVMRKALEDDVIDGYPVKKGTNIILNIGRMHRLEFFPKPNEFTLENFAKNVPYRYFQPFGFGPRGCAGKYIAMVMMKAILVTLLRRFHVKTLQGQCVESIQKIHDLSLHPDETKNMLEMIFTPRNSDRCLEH
Assay: Inhibition of human aromatase extracted from placental microsomes using [1beta-3H]AD as substrate by radiometric assay
measured endpoint: pIC50
Expect pIC50 as a plain number equal to -log10 of the molar concentration.

For orientation, consider the following solved cases.
[[record]]
smiles_notation = "C[C@H]1C[C@@]2(C)C(=CC1=O)CC[C@@H]1[C@@H]2CC[C@]2(C)C(=O)CC[C@@H]12"
tested_target = "Aromatase (Homo sapiens, UniProt P11511)"
recorded_value = 6.60

[[record]]
smiles_notation = "CC1(C)C[C@@]2(C)C(=CC1=O)CC[C@@H]1[C@@H]2CC[C@]2(C)C(=O)CC[C@@H]12"
tested_target = "Aromatase (Homo sapiens, UniProt P11511)"
recorded_value = 7.05

[[record]]
smiles_notation = "C=C1C[C@@]2(C)C(=CC1=O)CC[C@@H]1[C@@H]2CC[C@]2(C)C(=O)CC[C@@H]12"
tested_target = "Aromatase (Homo sapiens, UniProt P11511)"
recorded_value = 6.26


// next item, pIC50 requested
Recorded pIC50 for C[C@@H]1C[C@@]2(C)C(=CC1=O)CC[C@@H]1[C@@H]2CC[C@]2(C)C(=O)CC[C@@H]12 on Aromatase (Homo sapiens, UniProt P11511) was 6.16

###

Recorded pIC50, one value per entry.
Target: Aromatase (Homo sapiens, UniProt P11511)
Sequence (P11511 whole entry): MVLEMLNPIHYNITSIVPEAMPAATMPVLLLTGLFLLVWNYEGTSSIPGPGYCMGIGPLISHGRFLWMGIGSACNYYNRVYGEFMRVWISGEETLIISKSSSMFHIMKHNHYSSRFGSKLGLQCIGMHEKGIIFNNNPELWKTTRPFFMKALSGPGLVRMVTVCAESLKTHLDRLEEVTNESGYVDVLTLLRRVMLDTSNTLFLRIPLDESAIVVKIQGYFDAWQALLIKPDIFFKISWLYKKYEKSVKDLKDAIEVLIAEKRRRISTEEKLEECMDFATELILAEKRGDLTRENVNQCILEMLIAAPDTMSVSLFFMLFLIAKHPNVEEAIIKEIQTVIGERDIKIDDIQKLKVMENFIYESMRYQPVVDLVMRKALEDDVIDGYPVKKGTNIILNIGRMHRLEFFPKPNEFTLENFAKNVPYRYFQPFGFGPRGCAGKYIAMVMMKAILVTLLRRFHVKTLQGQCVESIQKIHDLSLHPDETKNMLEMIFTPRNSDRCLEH
Test: Inhibition of human aromatase extracted from placental microsomes using [1beta,2beta-3H]androstenedione as substrate
Expect pIC50 as a plain number equal to -log10 of the molar concentration.

[[record]]
smiles_notation = "C[C@]12CC=C3[C@@H](CCC4=CC(=O)CC[C@@]43CCSCF)[C@@H]1CCC2=O"
measured_endpoint = "pIC50"
recorded_value = 7.30


// next item, pIC50 requested
Sample CSCC[C@]12CCC(=O)C=C1CC[C@@H]1C2=CC[C@]2(C)C(=O)CC[C@@H]12 ; pIC50 observed: 7.92

###

target: Aromatase (Homo sapiens); test: Competitive inhibition of human aromatase extracted from placental microsomes by Dixon plot analysis in presence of [1beta-3H]androstenedione; conditions: read-out: Ki
pKi: −log10 of the molar value.
# pKi >= 6 gives True, anything below gives False

Worked cases, answers included:
[[record]]
smiles_notation = "CC(=O)O[C@@H]1C=C2C(=O)C[C@@H]3[C@H](CC[C@]4(C)C(=O)CC[C@@H]34)[C@@]2(C)CC1"
class_assignment = "False"

[[record]]
smiles_notation = "C[C@]12CCCC=C1C(=O)C[C@@H]1[C@@H]2CC[C@]2(C)C(=O)CC[C@@H]12"
class_assignment = "True"


Q) Decide: pKi of C[C@]12CC[C@H]3[C@@H](C(=O)C=C4CCCC[C@@]43CO)[C@@H]1CCC2=O >= 6?
A) False

Q) Decide: pKi of CC[C@]12C=CC(=O)C=C1C=C[C@H]1[C@@H]3CCC(=O)[C@@]3(C)CC[C@@H]12 >= 6?
A) True

Q) Decide: pKi of CC[C@]12CCC(=O)C=C1CC[C@@H]1[C@@H]2CC[C@]2(C)C(=O)CC[C@@H]12 >= 6?
A) True

Q) Decide: pKi of CC[C@]12CCC(=O)C=C1C=C[C@@H]1[C@@H]2CC[C@]2(C)C(=O)CC[C@@H]12 >= 6?
A) True

Q) Decide: pKi of C[C@]12CCCCC1=CC(=O)[C@@H]1[C@@H]2CC[C@]2(C)C(=O)CC[C@@H]12 >= 6?
A) True

Q) Decide: pKi of C[C@]12CC[C@H](OC=O)C=C1C(=O)C[C@@H]1[C@@H]2CC[C@]2(C)C(=O)CC[C@@H]12 >= 6?
A) False

Q) Decide: pKi of CC[C@]12C=CC(=O)C=C1CC[C@H]1[C@@H]3CCC(=O)[C@@]3(C)CC[C@@H]12 >= 6?
A) True
